- TESTED_ON: Na^+ /H^+ exchanger (Rattus norvegicus, UniProt P26431)
- Construct: endogenous in cells
- Sequence (P26431 whole entry): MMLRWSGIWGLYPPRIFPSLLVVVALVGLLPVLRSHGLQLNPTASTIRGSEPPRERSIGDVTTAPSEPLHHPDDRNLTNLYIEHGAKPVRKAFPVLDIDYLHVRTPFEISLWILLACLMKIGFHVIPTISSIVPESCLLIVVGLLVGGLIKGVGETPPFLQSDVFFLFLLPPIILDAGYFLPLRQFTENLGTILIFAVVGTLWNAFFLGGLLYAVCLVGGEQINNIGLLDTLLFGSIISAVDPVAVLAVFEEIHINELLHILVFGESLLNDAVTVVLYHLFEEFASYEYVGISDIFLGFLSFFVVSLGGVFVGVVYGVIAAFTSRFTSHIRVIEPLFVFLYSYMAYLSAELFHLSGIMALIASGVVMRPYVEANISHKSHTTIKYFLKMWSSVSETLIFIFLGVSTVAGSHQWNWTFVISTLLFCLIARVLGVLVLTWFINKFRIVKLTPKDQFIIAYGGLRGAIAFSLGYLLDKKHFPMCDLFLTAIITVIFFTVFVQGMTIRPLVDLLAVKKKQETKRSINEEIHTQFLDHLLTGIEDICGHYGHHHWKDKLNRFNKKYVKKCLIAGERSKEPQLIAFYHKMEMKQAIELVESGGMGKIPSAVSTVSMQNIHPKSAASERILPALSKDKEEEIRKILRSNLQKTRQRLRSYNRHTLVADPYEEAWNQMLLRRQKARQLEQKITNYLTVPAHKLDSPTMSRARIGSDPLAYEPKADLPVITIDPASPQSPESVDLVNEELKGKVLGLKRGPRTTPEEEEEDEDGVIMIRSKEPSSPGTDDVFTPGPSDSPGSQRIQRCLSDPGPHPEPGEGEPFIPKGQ
- METHOD_DESCRIPTION: Inhibitory activity on Na^+ /H^+ exchange in cells (swelling of thymocytes in sodium propionate medium)
- CONDITION_DETAILS: apparent Ki from Lineweaver-Burk plot, sodium-propionate medium pH 6.8, rate of swelling, 3-5 concentrations
VALUE_KIND: Ki

Reported Ki for NC(N)=NC(=O)c1cc(C(=O)NCCN2CCOCC2)cc(-c2cc(Cl)ccc2Cl)c1 was < 100 nM
